All figures here come from patent US12162840B2.

Test system: cool season plant species
test_name: B2 Post-emergence efficacy Test 2, cool season plant species
Format: in vivo
test_settings: VERPE, 15 g/Ha, 15 days after application, 0=no damage, 100=total kill
Protocol: Seeds of a variety of test species (see Table B1) were sown in standard soil in pots. […] Herbicidal activity was evaluated 15 days after application on a 0-100 scale. […]
Here the recorded Herbicidal activity (0-100 scale) VERPE is given for each entry.
API doc: respond with a numeric literal and nothing else, no unit.

Solved cases below.
>  <input_smiles>
Cc1nn(C)c(=O)c(-c2c(F)ccc(Cl)c2CCc2ccc(F)cc2)c1O

>  <measured_attribute>
Herbicidal activity (0-100 scale) VERPE

>  <value_measured>
60

$$$$
>  <input_smiles>
Cc1nn(C)c(=O)c(-c2c(F)ccc(Cl)c2CCc2ccc(Cl)cc2)c1OC(=O)C(C)C

>  <measured_attribute>
Herbicidal activity (0-100 scale) VERPE

>  <value_measured>
70

$$$$
>  <input_smiles>
Cc1nn(C)c(=O)c(-c2c(F)ccc(Cl)c2CCc2ccc(F)cc2)c1OC(=O)C(C)C

>  <measured_attribute>
Herbicidal activity (0-100 scale) VERPE

>  <value_measured>
70

$$$$

Data request: Name the recorded Herbicidal activity (0-100 scale) VERPE for "Cc1nn(C)c(=O)c(-c2c(F)ccc(Cl)c2CCc2ccccc2C(F)(F)F)c1O" .
Data returned: 80

Data request: // query: "Cc1nn(C)c(=O)c(-c2c(F)ccc(Cl)c2CCc2ccc(C#N)cc2)c1O"
Data returned: 80
